- Tested on: muscarinic binding site
- Measurement description: RCMD screening assay: inhibition of binding of radiolabeled cis-methyldioxolane (muscarinic agonist) to rat cerebral cortex tissue
- Condition info: read-out: IC₅nM RCMD
Structures can show the parent of a compound that is named as a salt.
Binary call on IC50 with cut-off 50 nM: strictly below means 1, and equality or higher means 0.

INSERT INTO measurements (molecule, class_label) VALUES
  ('C=CCON=C1CN2CCC1C2 (centres unmarked) [Example 8, oxalate]', 0),
  ('CCON=C1CN2CCC1C2 (centres unmarked) [Example 2, hydrochloride]', 1),
  ('N#CCON=C1CN2CCC1C2 (centres unmarked) [Example 27, hydrochloride]', 0),
  ('c1ccc(CON=C2CN3CCC2C3)cc1 (centres unmarked) [Example 5, hydrochloride]', 0),
  ('C#CCON=C1CN2CCC1C2 (centres unmarked) [Example 4, hydrochloride]', 1),
  ('CC(C)ON=C1CN2CCC1C2 (centres unmarked) [Example 7, hydrochloride]', 1),
  ('CCCON=C1CN2CCC1C2 (centres unmarked) [Example 6, hydrochloride]', 0),
  ('CON=C1CN2CCC1C2 (centres unmarked) [Example 3, hydrochloride]', 1);

###

Parameter: pIC50. Scope: all listed entries.
- Tested on: muscarinic binding site
- Condition info: rat cerebral cortex tissue; radiolabeled quinuclidinyl benzilate; read-out: IC₅₀nM RQNB
pIC50: −log10 of the molar value. Where a name gives a salt, the structure may show the parent alone.
Result type: pIC50

INSERT INTO results (molecule, readout_value) VALUES
  ('N#CCON=C1CN2CCC1C2 (centres unmarked) [Example 27, hydrochloride]', 5.05),
  ('c1ccc(CON=C2CN3CCC2C3)cc1 (centres unmarked) [Example 5, hydrochloride]', 5.23),
  ('CCCON=C1CN2CCC1C2 (centres unmarked) [Example 6, hydrochloride]', 5.41),
  ('CCON=C1CN2CCC1C2 (centres unmarked) [Example 2, hydrochloride]', 5.51),
  ('CON=C1CN2CCC1C2 (centres unmarked) [Example 3, hydrochloride]', 4.61),
  ('C#CCON=C1CN2CCC1C2 (centres unmarked) [Example 4, hydrochloride]', 5.53),
  ('C=CCON=C1CN2CCC1C2 (centres unmarked) [Example 8, oxalate]', 5.32),
  ('CC(C)ON=C1CN2CCC1C2 (centres unmarked) [Example 7, hydrochloride]', 5.69);

###

Parameter: IC50. Scope: all listed entries.
- Tested on: muscarinic binding site
- Condition info: rat cerebral cortex tissue; radiolabeled quinuclidinyl benzilate; hydrochloride; read-out: IC₅₀nM RQNB
Where a name gives a salt, the structure may show the parent alone.
Result type: IC50 (µM)

INSERT INTO assay_data (compound, readout_value) VALUES
  ('C=CC=CCON=C1CN2CCC1C2 (single isomer, unassigned) [28 (Isomer A), hydrochloride]', 0.434),
  ('C=CC=CCON=C1CN2CCC1C2 (single isomer, unassigned) [28 (Isomer B), hydrochloride]', 9.65);
